The measurements presented in this section are drawn from patent US20100035793A1.

- Tested on: Stat3
- Assay procedure: Western blot of Stat3 expression in packaging cells transfected with Stat3 siRNA vectors
- Parameters: species or system human
- Condition parameters: 293T-based amphotropic packaging cell line, FIG. 5A left panel

[
  {
    "Substance": "Stat3 siRNA 4: siRNA target nt. 1662-1681 of STAT 3, GCGTCCATCCTGTGGTACA, hairpin primers SEQ ID 8 and 9, retroviral vector",
    "inhibitory effect on Stat3 expression": "inhibitory effect"
  },
  {
    "Substance": "Stat3 siRNA 2: siRNA target nt. 1264-1283 of STAT 3, GGCGTCCAGTTCACTACTA, hairpin primers SEQ ID 6 and 7, retroviral vector",
    "inhibitory effect on Stat3 expression": "inhibitory effect"
  },
  {
    "Substance": "Stat3 siRNA 1: siRNA target nt. 461-480 of STAT 3 (NM—139276), AGTCGAATGTTCTCTATCA, hairpin primers SEQ ID 4 and 5, retroviral vector",
    "inhibitory effect on Stat3 expression": "inhibitory effect"
  },
  {
    "Substance": "Stat3 siRNA 3: siRNA target nt. 364-383 of STAT 3, GATTGGGCATATGCGGCCA, retroviral vector; does not inhibit Stat3",
    "inhibitory effect on Stat3 expression": "not"
  }
]
